# RUN_DESCRIPTION: in vitro
# APPLIED_CONDITIONS: human, microsomes
Starred links: 1 amine or outer side, 2 acyl side, 3 side chain; linkers in the order of their positions; H or OH if unused. Non-standard residues stand in square brackets, D forms with d. Residues, ends and D or L forms follow the SMILES beside them. X1 = CC(C)C[C@H](NC(=S)[C@H](Cc1ccc(O)cc1)N[*:1])C(=O)[*:2]; X6 = O=C([C@H](Cc1ccc(O)cc1)NC(=S)[C@H]1CCCN1[*:1])[*:2]; X2 = CC(C)C[C@H](NC(=S)[C@@H](CC(C)C)N[*:1])C(=O)[*:2]; X4 = CC(C)C[C@H](N[*:1])C(=S)N1CCC[C@@H]1C(=O)[*:2]; NMeL = CN[C@@H](CC(C)C)C(=O)O; dNMeL = CN[C@H](CC(C)C)C(=O)O
Rule: measured remaining at 20 min below 50% gets condition met; anything equal to or greater than 50% gets condition not met.

For CC(C)C[C@@H]1NC(=O)[C@H](Cc2ccc(O)cc2)NC(=O)[C@H]2CCCN2C(=O)[C@H](CC(C)C)NC(=O)[C@H](CC(C)C)N(C)C(=O)[C@@H](CC(C)C)NC1=O [10h] (cyclo(L[dL][NMeL]L[dP]Y)) , is the recorded remaining at 20 min below the cut-off of 50%? condition not met

For CC(C)C[C@@H]1NC(=O)[C@H](Cc2ccc(O)cc2)NC(=S)[C@H]2CCCN2C(=O)[C@H](CC(C)C)NC(=O)[C@H](CC(C)C)NC(=O)[C@@H](CC(C)C)NC1=O [10d] (cyclo(LL[X6]L[dL])) , is the recorded remaining at 20 min below the cut-off of 50%? condition not met

For CC(C)C[C@@H]1NC(=O)[C@@H](CC(C)C)NC(=O)[C@H](CC(C)C)N(C)C(=O)[C@H](Cc2ccc(O)cc2)NC(=O)[C@H]2CCCN2C(=O)[C@H](CC(C)C)NC1=O [10k] (cyclo(LL[dP]Y[NMeL][dL])) , is the recorded remaining at 20 min below the cut-off of 50%? condition met

For CC(C)C[C@@H]1NC(=O)[C@H](Cc2ccc(O)cc2)NC(=O)[C@H]2CCCN2C(=O)[C@H](CC(C)C)N(C)C(=O)[C@H](CC(C)C)NC(=O)[C@@H](CC(C)C)NC1=O [10i] (cyclo(L[NMeL][dP]YL[dL])) , is the recorded remaining at 20 min below the cut-off of 50%? condition not met

For CC(C)C[C@@H]1NC(=O)[C@@H](CC(C)C)NC(=O)[C@H](CC(C)C)NC(=S)[C@H](Cc2ccc(O)cc2)NC(=O)[C@H]2CCCN2C(=O)[C@H](CC(C)C)NC1=O [10e] (cyclo(LL[dP][X1][dL])) , is the recorded remaining at 20 min below the cut-off of 50%? condition not met

For CC(C)C[C@@H]1NC(=O)[C@H](Cc2ccc(O)cc2)NC(=O)[C@H]2CCCN2C(=O)[C@H](CC(C)C)NC(=O)[C@H](CC(C)C)NC(=S)[C@@H](CC(C)C)NC1=O [10a] (cyclo(L[dP]YL[X2])) , is the recorded remaining at 20 min below the cut-off of 50%? condition not met

For CC(C)C[C@@H]1NC(=O)[C@H](Cc2ccc(O)cc2)NC(=O)[C@H]2CCCN2C(=S)[C@H](CC(C)C)NC(=O)[C@H](CC(C)C)NC(=O)[C@@H](CC(C)C)NC1=O [10c] (cyclo(L[dL]L[X4]Y)) , is the recorded remaining at 20 min below the cut-off of 50%? condition met

For CC(C)C[C@@H]1NC(=O)[C@H](Cc2ccc(O)cc2)NC(=O)[C@H]2CCCN2C(=O)[C@H](CC(C)C)NC(=O)[C@H](CC(C)C)NC(=O)[C@@H](CC(C)C)NC1=O [compound 10, cyclo(-D-Leu^1-Leu-Leu-D-Pro-Tyr-Leu^6-)] (cyclo(LL[dP]YL[dL])) , is the recorded remaining at 20 min below the cut-off of 50%? condition met

For CC(C)C[C@@H]1NC(=O)[C@@H](CC(C)C)N(C)C(=O)[C@H](CC(C)C)NC(=O)[C@H](Cc2ccc(O)cc2)NC(=O)[C@H]2CCCN2C(=O)[C@H](CC(C)C)NC1=O [10g] (cyclo(LL[dP]YL[dNMeL])) , is the recorded remaining at 20 min below the cut-off of 50%? condition met
